Listed below: GI50 values for each entry.
- Test system: RPMI-8226
- TEST_DETAILS: NCI tumour cell line growth inhibition, 48 h
The source made the active and inactive calls. No stated cut-off is given here; in the data, active = GI50 up to about 1.1 µM and inactive = higher.

* CCCCC(=O)Oc1ccc2c(C)cc(=O)oc2c1 | > 100 µM (inactive)

Continue with the next compound.
IN: // query GI50 value for entry COc1cnnc2c(C)c(-c3ccccc3)nn12
OUT: 56.5 µM (inactive)

* * *

- Test system: KM12
- TEST_DETAILS: NCI tumour cell line growth inhibition, 48 h
Calls of active or inactive are those of the source. Cut-off read from the data, not from the text of the source: active = GI50 up to about 1.1 µM and inactive = higher.
Pick one and only one: 1 (active), -1 (inactive)

Known results for compounds:
• COc1ccccc1NC(=S)NNC(=O)c1cc(-c2ccccc2)nc2ccccc12 = -1
• N=C1N(S(=O)(=O)c2ccccc2)[C@@H](Cc2ccccc2)[C@H](c2ccccc2)C1(c1ccccc1)c1ccccc1 = -1
• O=C1N/N=C\Nc2ccc(cc2)S(=O)(=O)c2ccc(cc2)/N=C\NNC1=O = -1
• CS(=O)(=O)c1ccc(C2=C(c3ccccc3)C(=O)OC2)cc1 = -1
• CCOC(=O)CCC(NC(=O)c1ccc(N2CCN(c3c(C)nc(N)nc3N)CC2)cc1)C(=O)OCC (configuration not stated) = -1
• CC1(C)C(=O)N(O)C(C)(C)N1N=O = -1

IN: Per the records of this test, what outcome belongs to O[C@H]1[C@H]2[C@H](O)CCCN2C[C@H]1O ?
OUT: -1

IN: Then CCCN1CN(C(C(=O)N[C@@H]2C(=O)N3C2SC(C)(C)C3C(=O)O)c2ccc(O)cc2)CSC1=S (some centres not stated) ?
OUT: -1

IN: Then COC(=O)c1ccccc1CC(Cc1ccccc1)C(=O)OC (configuration not stated) ?
OUT: -1

IN: Then COc1nc(O)nc2c1C(c1ccc([N+](=O)[O-])cc1)c1c(OC)nc(O)nc1O2 ?
OUT: -1

IN: Then CCN(CC)/[N+]([O-])=N/O ?
OUT: -1

IN: Then CCN(CC)CCOc1ccc(C(O)(Cc2ccc(OC)cc2)c2ccccc2)cc1 (configuration not stated) ?
OUT: -1
